# STUDY_SYSTEM: T1, AP2 α-appendage (residues 695 to 938) (UniProt P17427 695-938)
# T1 construct: AP2 α subunit (α2), appendage, residues 695 to 938; also called α2 ear; pGEX4T2α-appendage; source: E. coli BL21 plyS, purified (GST beads, thrombin, Superdex 200)
# T1 sequence (P17427 695-938): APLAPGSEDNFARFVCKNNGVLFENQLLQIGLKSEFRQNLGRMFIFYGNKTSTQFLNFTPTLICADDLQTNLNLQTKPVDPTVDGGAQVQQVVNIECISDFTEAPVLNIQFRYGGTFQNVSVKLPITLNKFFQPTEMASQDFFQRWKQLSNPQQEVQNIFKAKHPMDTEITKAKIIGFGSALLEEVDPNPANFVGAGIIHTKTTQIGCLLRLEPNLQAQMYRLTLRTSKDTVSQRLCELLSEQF
# ASSAY_TEXT: ITC; α-appendage or β2-appendage with C block peptides; 100 mM tris pH 7.4, 150 mM NaCl, 0.25 mM TCEP; 12°C; peptides 1 to 5 mM titrated
# CONDITIONS: both partners purified
pKd: −log10 of the molar value.
PROPERTY: pKd

INPUT: For the binder QSEEQVSKNLFGPPAAAAFDHED (peptide, UniProt O14526 426-448, looked up) [FCHO1 C peptide, LES to AAA] , what pKd is on record?
OUTPUT: < 3.30

Where these numbers come from: paper PMC9054013
